Catalogue of log10(T1/2 plasma) readings, one per entry.
Test: Plasma pharmacokinetics of phenolic metabolites after oral capsule of (poly)phenol-rich Mediterranean extract mixture
Conditions: oral capsule, 0-24 h, n = 6 per time point
value_kind: log10(T1/2 plasma) (log10 of the value in h)

• O=C(O)C=Cc1ccc(O)c(OS(=O)(=O)O)c1 [caffeic acid 3-O-sulfate] = 0.92
• O=C(O)[C@H]1O[C@@H](Oc2cc(O)cc(CCc3ccc(O)cc3)c2)[C@H](O)[C@@H](O)[C@@H]1O [dihydroresveratrol 3-O-glucuronide] = 0.91
• COc1ccc(C2CC(=O)c3c(O)cc(O)cc3O2)cc1O[C@@H]1O[C@H](C(=O)O)[C@@H](O)[C@H](O)[C@H]1O (some centres unmarked) [hesperetin 3′-O-glucuronide] = 1.17
• O=C(O)C=Cc1ccc(OS(=O)(=O)O)cc1 [p-coumaric acid 4-O-sulfate] = 1.52
• O=S(=O)(O)Oc1ccc(CCO)cc1O [hydroxytyrosol 4′-O-sulfate] = 0.48
• COc1cc(/C=C/C(=O)O)ccc1OS(=O)(=O)O [ferulic acid 4-O-sulfate] = 1.08
• O=S(=O)(O)Oc1cc(CCO)ccc1O [hydroxytyrosol 3-O-sulfate] = 0.60
• O=S(=O)(O)Oc1ccc(CCO)cc1 [tyrosol 4-O-sulfate] = 0.81
• COc1ccc([C@@H]2CC(=O)c3c(O)cc(O[C@@H]4O[C@H](C(=O)O)[C@@H](O)[C@H](O)[C@H]4O)cc3O2)cc1O [hesperetin 7-O-glucuronide] = 0.87
• O=C(O)CCc1ccc(O)c(OS(=O)(=O)O)c1 [dihydrocaffeic acid 3-O-sulfate] = 0.78
• O=C1CCC(Cc2ccc(O)c(OS(=O)(=O)O)c2)O1 (centres unmarked) = 1.28

###

Test: Plasma pharmacokinetics of phenolic metabolites after oral capsule of (poly)phenol-rich Mediterranean extract mixture
Details: read-out: Cmax plasma, oral capsule, 0-24 h, n = 6 per time point
value_kind: Cmax (nM)

* COc1ccc([C@@H]2CC(=O)c3c(O)cc(O[C@@H]4O[C@H](C(=O)O)[C@@H](O)[C@H](O)[C@H]4O)cc3O2)cc1O [hesperetin 7-O-glucuronide] | 4
* O=S(=O)(O)Oc1ccc(CCO)cc1O [hydroxytyrosol 4′-O-sulfate] | 192
* O=C(O)CCc1ccc(O)c(OS(=O)(=O)O)c1 [dihydrocaffeic acid 3-O-sulfate] | 9.6

###

Catalogue of Tmax PB readings, one per entry.
Experiment: Perfused brain (PB) kinetics of phenolic metabolites after oral capsule
Assay type: in vivo, Sprague–Dawley rats
Conditions: perfused brain, oral capsule, 0-24 h, n = 3 per time point
value_kind: Tmax PB (h)

- O=S(=O)(O)Oc1ccc(CCO)cc1O [hydroxytyrosol 4′-O-sulfate]: 2.3
- O=C(O)C=Cc1ccc(OS(=O)(=O)O)cc1 [p-coumaric acid 4-O-sulfate]: 19
- COc1cc(/C=C/C(=O)O)ccc1OS(=O)(=O)O [ferulic acid 4-O-sulfate]: 12
- O=S(=O)(O)Oc1ccc(CCO)cc1 [tyrosol 4-O-sulfate]: 2.3
- O=S(=O)(O)Oc1cc(CCO)ccc1O [hydroxytyrosol 3-O-sulfate]: 2.7
- O=C(O)[C@H]1O[C@@H](Oc2cc(O)cc(CCc3ccc(O)cc3)c2)[C@H](O)[C@@H](O)[C@@H]1O [dihydroresveratrol 3-O-glucuronide]: 3.3
- O=C(O)C=Cc1ccc(O)c(OS(=O)(=O)O)c1 [caffeic acid 3-O-sulfate]: 3.0

###

Assay: Perfused brain (PB) kinetics of phenolic metabolites after oral capsule
Format: in vivo, Sprague–Dawley rats
Details: perfused brain, oral capsule, 0-24 h, n = 3 per time point
Catalogue of T1/2 PB readings, one per entry.
value_kind: T1/2 PB (h)

* O=C(O)[C@H]1O[C@@H](Oc2cc(O)cc(CCc3ccc(O)cc3)c2)[C@H](O)[C@@H](O)[C@@H]1O [dihydroresveratrol 3-O-glucuronide] | 15
* O=C(O)C=Cc1ccc(OS(=O)(=O)O)cc1 [p-coumaric acid 4-O-sulfate] | 23.85
* O=S(=O)(O)Oc1cc(CCO)ccc1O [hydroxytyrosol 3-O-sulfate] | 7.3
* O=S(=O)(O)Oc1ccc(CCO)cc1O [hydroxytyrosol 4′-O-sulfate] | 12
* O=C(O)C=Cc1ccc(O)c(OS(=O)(=O)O)c1 [caffeic acid 3-O-sulfate] | 5.2

###

Test system: human brain microvascular endothelial cells (HBMECs)
Assay: In vitro blood–brain barrier transport (Transwell)
Assay type: in vitro ADME
Settings: HBMEC monolayer, 2.5 μM, 2 h, lower compartment / total concentration
value_kind: transport percentage, individual compounds

- O=C(O)C=Cc1ccc(OS(=O)(=O)O)cc1 [p-coumaric acid 4-O-sulfate]: exceeding 20%
- O=C(O)C=Cc1ccc(O)c(OS(=O)(=O)O)c1 [caffeic acid 3-O-sulfate]: exceeding 20%
- O=C(O)CCc1cccc(O)c1 [3-(3-hydroxyphenyl) propionic acid]: exceeding 20%
- O=C(O)CCc1ccc(O)c(O)c1 [dihydrocaffeic acid]: < 5%
- O=S(=O)(O)Oc1cc(O)cc(C=Cc2ccc(O)cc2)c1 [resveratrol 3-O-sulfate]: < 5%

###

Experiment: Plasma pharmacokinetics of phenolic metabolites after oral capsule of (poly)phenol-rich Mediterranean extract mixture
Settings: male, Sprague-Dawley, rat, po, 22 mg extract blend per capsule, one capsule per animal
Catalogue of MRT last readings, one per entry.
value_kind: MRT last (h)

• O=C(O)CCCCc1cccc(O)c1 [5-(3-hydroxyphenyl)-valeric acid] = 43
• O=c1oc2c(O)c(O)cc3c(=O)oc4c(O)c(O)cc1c4c23 [ellagic acid] = 103
• O=C(O)CCc1cccc(O)c1 [3-(3-hydroxyphenyl) propionic acid] = 9.77
• O=C(O)CCc1ccc(O)c(O)c1 [dihydrocaffeic acid] = 86
• O=C(O)CCc1ccccc1O [3-(2-hydroxyphenyl) propionic acid] = 8.89
• O=C(O)c1ccc(O)cc1O [2,4-dihydroxybenzoic acid] = 22
• O=S(=O)(O)Oc1cc(O)cc(C=Cc2ccc(O)cc2)c1 [resveratrol 3-O-sulfate] = 8.5

###

Assay: Perfused brain (PB) kinetics of phenolic metabolites after oral capsule
Format: in vivo, Sprague–Dawley rats
Conditions: perfused brain, oral capsule, 0-24 h, n = 3 per time point
Excerpt: Statistical analyses were applied depending on the experimental context.
value_kind: Cmax PB (pmol/g tissue)

• O=C(O)C=Cc1ccc(O)c(OS(=O)(=O)O)c1 [caffeic acid 3-O-sulfate] = 1.0
• O=S(=O)(O)Oc1cc(CCO)ccc1O [hydroxytyrosol 3-O-sulfate] = 3.4
• O=C(O)C=Cc1ccc(OS(=O)(=O)O)cc1 [p-coumaric acid 4-O-sulfate] = 2.8
• COc1cc(/C=C/C(=O)O)ccc1OS(=O)(=O)O [ferulic acid 4-O-sulfate] = 0.2
• O=C(O)CCc1ccccc1O [3-(2-hydroxyphenyl) propionic acid] = 0.6
• O=C(O)c1ccc(O)cc1O [2,4-dihydroxybenzoic acid] = 4.3
• O=S(=O)(O)Oc1ccc(CCO)cc1O [hydroxytyrosol 4′-O-sulfate] = 4.8
• O=S(=O)(O)Oc1ccc(CCO)cc1 [tyrosol 4-O-sulfate] = 0.1
• O=c1oc2c(O)c(O)cc3c(=O)oc4c(O)c(O)cc1c4c23 = 0.1
• O=C(O)CCc1ccc(O)c(O)c1 [dihydrocaffeic acid] = 0.7
• O=S(=O)(O)Oc1cc(O)cc(C=Cc2ccc(O)cc2)c1 [resveratrol 3-O-sulfate] = 0.1
• O=C(O)[C@H]1O[C@@H](Oc2cc(O)cc(CCc3ccc(O)cc3)c2)[C@H](O)[C@@H](O)[C@@H]1O [dihydroresveratrol 3-O-glucuronide] = 0.4
• O=C(O)CCCCc1cccc(O)c1 [5-(3-hydroxyphenyl)-valeric acid] = 2.4
• O=C(O)CCc1cccc(O)c1 [3-(3-hydroxyphenyl) propionic acid] = 1.0

###

Assay: Plasma pharmacokinetics of phenolic metabolites after oral capsule of (poly)phenol-rich Mediterranean extract mixture
Settings: oral capsule, 0-24 h, n = 6 per time point
value_kind: AUC0-t plasma

- O=C(O)[C@H]1O[C@@H](Oc2cc(O)cc(CCc3ccc(O)cc3)c2)[C@H](O)[C@@H](O)[C@@H]1O [dihydroresveratrol 3-O-glucuronide]: 0.993 ± 0.558 µM·h
- O=C1CCC(Cc2ccc(O)c(OS(=O)(=O)O)c2)O1 (centres unmarked): 0.113 ± 0.078 µM·h
- O=C(O)C=Cc1ccc(O)c(OS(=O)(=O)O)c1 [caffeic acid 3-O-sulfate]: 0.282 ± 0.332 µM·h
- COc1ccc(C2CC(=O)c3c(O)cc(O)cc3O2)cc1O[C@@H]1O[C@H](C(=O)O)[C@@H](O)[C@H](O)[C@H]1O (some centres unmarked) [hesperetin 3′-O-glucuronide]: 0.011 ± 0.0013 µM·h
- O=S(=O)(O)Oc1ccc(CCO)cc1O [hydroxytyrosol 4′-O-sulfate]: 0.793 ± 0.403 µM·h

The measured values listed here are drawn from paper PMC12063173.
